target: T1, full length human DLL4 (human, UniProt Q9NR61 27-685); test: FMAT competition, purified antibody vs Alexa-647 human Notch1/Fc, 293T cells with human DLL4
T1 construct: whole, on cells; also called native DLL4 expressed in HEK293 cells
T1 sequence (Q9NR61 27-685): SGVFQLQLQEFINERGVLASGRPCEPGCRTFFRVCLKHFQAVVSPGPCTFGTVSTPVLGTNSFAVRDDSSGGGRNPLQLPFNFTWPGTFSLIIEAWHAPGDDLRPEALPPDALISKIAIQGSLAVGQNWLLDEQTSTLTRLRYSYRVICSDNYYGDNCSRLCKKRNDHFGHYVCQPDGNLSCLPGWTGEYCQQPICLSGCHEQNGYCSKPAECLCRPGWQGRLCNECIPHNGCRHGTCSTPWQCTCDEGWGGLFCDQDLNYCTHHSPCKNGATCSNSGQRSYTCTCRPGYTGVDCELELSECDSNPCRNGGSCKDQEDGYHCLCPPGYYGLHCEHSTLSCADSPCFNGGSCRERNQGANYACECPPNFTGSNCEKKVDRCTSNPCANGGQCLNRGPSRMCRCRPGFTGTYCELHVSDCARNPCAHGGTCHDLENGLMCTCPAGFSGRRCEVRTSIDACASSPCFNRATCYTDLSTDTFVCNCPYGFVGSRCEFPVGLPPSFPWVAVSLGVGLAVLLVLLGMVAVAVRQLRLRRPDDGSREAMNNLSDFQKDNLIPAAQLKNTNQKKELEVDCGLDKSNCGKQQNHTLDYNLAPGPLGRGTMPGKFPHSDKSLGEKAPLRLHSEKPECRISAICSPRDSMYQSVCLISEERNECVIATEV
READOUT TYPE: % inhibition at 0.21 nM (%)

[[record]]
binder = "1E4 (antibody, IgG2, V domains shown, Fully human; also used where no isotype is printed) VH: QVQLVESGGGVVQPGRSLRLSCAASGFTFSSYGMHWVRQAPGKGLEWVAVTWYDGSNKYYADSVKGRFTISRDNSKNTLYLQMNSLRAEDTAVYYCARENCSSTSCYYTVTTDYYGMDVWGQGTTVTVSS VL: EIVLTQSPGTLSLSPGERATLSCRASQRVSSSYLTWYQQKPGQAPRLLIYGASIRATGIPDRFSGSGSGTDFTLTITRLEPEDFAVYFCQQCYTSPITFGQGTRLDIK"
readout_type = "% inhibition at 0.21 nM"
assay_result = 21

[[record]]
binder = "1D4 (antibody, IgG4, V domains shown, Fully human XenoMouse antibody; also used where no isotype is printed) VH: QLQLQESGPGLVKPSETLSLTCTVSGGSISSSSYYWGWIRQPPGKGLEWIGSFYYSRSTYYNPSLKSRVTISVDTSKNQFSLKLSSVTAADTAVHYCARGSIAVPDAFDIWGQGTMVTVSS VL: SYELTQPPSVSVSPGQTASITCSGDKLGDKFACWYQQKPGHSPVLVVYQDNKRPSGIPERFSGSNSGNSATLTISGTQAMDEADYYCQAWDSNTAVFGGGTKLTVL"
readout_type = "% inhibition at 0.21 nM"
assay_result = 5

[[record]]
binder = "2H10 (antibody, IgG4, V domains shown, Fully human; used for IgG4 rows and where no isotype is printed; also called 2H10 IgG4) VH: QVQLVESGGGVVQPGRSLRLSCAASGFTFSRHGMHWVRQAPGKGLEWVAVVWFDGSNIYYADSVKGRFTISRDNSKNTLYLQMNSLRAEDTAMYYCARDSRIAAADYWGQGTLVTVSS VL: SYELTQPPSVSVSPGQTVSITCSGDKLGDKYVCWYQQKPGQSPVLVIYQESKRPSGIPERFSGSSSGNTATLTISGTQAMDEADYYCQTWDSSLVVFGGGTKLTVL"
readout_type = "% inhibition at 0.21 nM"
assay_result = 14

[[record]]
binder = "12A1 (antibody, IgG4, V domains shown, Fully human; also used where no isotype is printed) VH: QVQLVQSGAEVKRPGASVKVSCKASGYTFTSYGITWVRQAPGQGLEYMGWISTYNGNTDYAQKFQGRVTMTADISTSTAYMELRSLRSDDTAVYYCARERGSYFDYWGQGTLVTVSS VL: SYELTQPPSVSVSPGQTARITCSGDTLPKKYAYWYQQKSGQAPVLVIYEDIKRPSGIPERFSGSSSGTMATLTISGAQVEDEADYYCFSTDSGGNHKFGGGTKLTVL"
readout_type = "% inhibition at 0.21 nM"
assay_result = 9

[[record]]
binder = "4B4 (antibody, IgG4, V domains shown, Fully human; used for IgG4 rows and where no isotype is printed; also called 4B4 IgG4; 4B4.1) VH: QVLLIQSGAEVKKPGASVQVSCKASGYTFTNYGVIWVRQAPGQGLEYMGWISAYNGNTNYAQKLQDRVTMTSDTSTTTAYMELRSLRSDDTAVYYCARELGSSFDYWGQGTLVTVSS VL: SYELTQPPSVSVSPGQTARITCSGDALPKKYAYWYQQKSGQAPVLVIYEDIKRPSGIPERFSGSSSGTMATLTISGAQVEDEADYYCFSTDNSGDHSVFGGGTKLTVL"
readout_type = "% inhibition at 0.21 nM"
assay_result = 23

